I'd appreciate it if you could supply apparent Kd (screen) values for the items below.
# Assayed Target: T1, TNFR1 (Homo sapiens, UniProt P19438)
# T1 chain: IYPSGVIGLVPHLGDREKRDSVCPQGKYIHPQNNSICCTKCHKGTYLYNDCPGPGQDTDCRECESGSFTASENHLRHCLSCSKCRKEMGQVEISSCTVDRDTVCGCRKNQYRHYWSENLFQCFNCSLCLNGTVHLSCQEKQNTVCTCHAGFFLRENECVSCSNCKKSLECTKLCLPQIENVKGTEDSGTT
# Test Method Notes: yeast display SC50
Unit nM implied. Number only.

## Task Which apparent Kd (screen) is listed for E43P (designed binder) MTLQELLREEALRRAEAEAFRYALELLAEKFPEQKEYLLDLAPEIESQIRSLSGVDVEDVRKFLDKEWAWVKELLAEHPAELAEVEAARAARLAELRAEVEAKVAA ?
## Result 1.16

## Task Proceed to R89A (designed binder) MTLQELLREEALRRAEAEAFRYALELLAEKFPEQKEYLLDLAEEIESQIRSLSGVDVEDVRKFLDKEWAWVKELLAEHPAELAEVEAAAAARLAELRAEVEAKVAA
## Result 0.79

## Task Proceed to E33K (designed binder) MTLQELLREEALRRAEAEAFRYALELLAEKFPKQKEYLLDLAEEIESQIRSLSGVDVEDVRKFLDKEWAWVKELLAEHPAELAEVEAARAARLAELRAEVEAKVAA
## Result 1.05

## Task Proceed to G54C (designed binder) MTLQELLREEALRRAEAEAFRYALELLAEKFPEQKEYLLDLAEEIESQIRSLSCVDVEDVRKFLDKEWAWVKELLAEHPAELAEVEAARAARLAELRAEVEAKVAA
## Result 24.4

## Task Proceed to K35L (designed binder) MTLQELLREEALRRAEAEAFRYALELLAEKFPEQLEYLLDLAEEIESQIRSLSGVDVEDVRKFLDKEWAWVKELLAEHPAELAEVEAARAARLAELRAEVEAKVAA
## Result 0.405

## Task Proceed to E25C (designed binder) MTLQELLREEALRRAEAEAFRYALCLLAEKFPEQKEYLLDLAEEIESQIRSLSGVDVEDVRKFLDKEWAWVKELLAEHPAELAEVEAARAARLAELRAEVEAKVAA
## Result 0.49

## Task Proceed to H78T (designed binder) MTLQELLREEALRRAEAEAFRYALELLAEKFPEQKEYLLDLAEEIESQIRSLSGVDVEDVRKFLDKEWAWVKELLAETPAELAEVEAARAARLAELRAEVEAKVAA
## Result 0.869

## Task Proceed to E81V (designed binder) MTLQELLREEALRRAEAEAFRYALELLAEKFPEQKEYLLDLAEEIESQIRSLSGVDVEDVRKFLDKEWAWVKELLAEHPAVLAEVEAARAARLAELRAEVEAKVAA
## Result 0.593

## Task Proceed to Q4C (designed binder) MTLCELLREEALRRAEAEAFRYALELLAEKFPEQKEYLLDLAEEIESQIRSLSGVDVEDVRKFLDKEWAWVKELLAEHPAELAEVEAARAARLAELRAEVEAKVAA
## Result 0.539

## Task Proceed to A105M (designed binder) MTLQELLREEALRRAEAEAFRYALELLAEKFPEQKEYLLDLAEEIESQIRSLSGVDVEDVRKFLDKEWAWVKELLAEHPAELAEVEAARAARLAELRAEVEAKVMA
## Result 0.653

## Task Proceed to K35Y (designed binder) MTLQELLREEALRRAEAEAFRYALELLAEKFPEQYEYLLDLAEEIESQIRSLSGVDVEDVRKFLDKEWAWVKELLAEHPAELAEVEAARAARLAELRAEVEAKVAA
## Result 0.446

## Task Proceed to S47I (designed binder) MTLQELLREEALRRAEAEAFRYALELLAEKFPEQKEYLLDLAEEIEIQIRSLSGVDVEDVRKFLDKEWAWVKELLAEHPAELAEVEAARAARLAELRAEVEAKVAA
## Result 0.956

## Task Proceed to R8E (designed binder) MTLQELLEEEALRRAEAEAFRYALELLAEKFPEQKEYLLDLAEEIESQIRSLSGVDVEDVRKFLDKEWAWVKELLAEHPAELAEVEAARAARLAELRAEVEAKVAA
## Result 0.49

## Task Proceed to K66T (designed binder) MTLQELLREEALRRAEAEAFRYALELLAEKFPEQKEYLLDLAEEIESQIRSLSGVDVEDVRKFLDTEWAWVKELLAEHPAELAEVEAARAARLAELRAEVEAKVAA
## Result 0.956

## Task Proceed to V57N (designed binder) MTLQELLREEALRRAEAEAFRYALELLAEKFPEQKEYLLDLAEEIESQIRSLSGVDNEDVRKFLDKEWAWVKELLAEHPAELAEVEAARAARLAELRAEVEAKVAA
## Result 1.54

## Task Proceed to A83I (designed binder) MTLQELLREEALRRAEAEAFRYALELLAEKFPEQKEYLLDLAEEIESQIRSLSGVDVEDVRKFLDKEWAWVKELLAEHPAELIEVEAARAARLAELRAEVEAKVAA
## Result 0.869
